Target: Alpha-1B adrenergic receptor (Homo sapiens)
Test: Inhibition of adrenergic alpha1B receptor at 1 uM by radioligand displacement assay
Recorded inhibition for the following compounds
I'd appreciate it if you wrote the number followed by its unit.

{"columns": ["molecule-smiles", "value-type", "experimental-value"],
 "data": [
  ["CN1CCN(Cc2cccc3c2ccn3S(=O)(=O)c2ccccc2)CC1", "inhibition", "0.99%"],
  ["CN1CCN(Cc2cccc3c2c(Br)cn3S(=O)(=O)c2ccccc2)CC1", "inhibition", "2.17%"],
  ["CN1CCN(Cc2cccc3c2c(Cl)cn3S(=O)(=O)c2cccc(Cl)c2)CC1", "inhibition", "0.78%"],
  ["CN1CCN(Cc2cccc3c2ccn3S(=O)(=O)c2ccccc2Br)CC1", "inhibition", "2.26%"]
]}

Prompt: Given `O=S(=O)(c1ccccc1Br)n1ccc2c(CN3CCNCC3)cccc21` , state its recorded inhibition.
Response: 1.13%

###

Biological target: D(3) dopamine receptor (Homo sapiens) (UniProt P35462)
Sequence (P35462 whole entry): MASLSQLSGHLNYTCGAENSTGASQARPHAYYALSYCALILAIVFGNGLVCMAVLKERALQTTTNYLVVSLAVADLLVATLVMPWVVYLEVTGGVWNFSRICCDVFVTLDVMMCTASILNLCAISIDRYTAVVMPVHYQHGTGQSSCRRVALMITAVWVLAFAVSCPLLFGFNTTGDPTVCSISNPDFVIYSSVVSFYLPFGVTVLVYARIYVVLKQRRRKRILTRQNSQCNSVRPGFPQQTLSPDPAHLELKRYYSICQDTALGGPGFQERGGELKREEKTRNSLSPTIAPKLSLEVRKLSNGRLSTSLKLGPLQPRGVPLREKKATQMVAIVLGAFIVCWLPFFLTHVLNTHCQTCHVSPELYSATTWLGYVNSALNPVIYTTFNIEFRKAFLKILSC
Assay: Inhibition of dopamine D3 receptor at 1 uM by radioligand displacement assay
Recorded inhibition for the following compounds

Consider the reported inhibition for these compounds:
{"columns": ["molecule-smiles", "inhibition"],
 "data": [
  ["CN1CCN(Cc2cccc3c2c(Cl)cn3S(=O)(=O)c2cccc(Cl)c2)CC1", "28.5%"],
  ["CN1CCN(Cc2cccc3c2ccn3S(=O)(=O)c2ccccc2)CC1", "22.6%"],
  ["O=S(=O)(c1ccccc1Br)n1ccc2c(CN3CCNCC3)cccc21", "8.31%"],
  ["CN1CCN(Cc2cccc3c2c(Br)cn3S(=O)(=O)c2ccccc2)CC1", "35.7%"]
]}

Next compound, inhibition to be filled in.
Prompt: Given `CN1CCN(Cc2cccc3c2ccn3S(=O)(=O)c2ccccc2Br)CC1` , state its recorded inhibition.
Response: 27.8%

###

Biological target: Sodium-dependent dopamine transporter (Homo sapiens) (UniProt Q01959)
Sequence (Q01959 whole entry): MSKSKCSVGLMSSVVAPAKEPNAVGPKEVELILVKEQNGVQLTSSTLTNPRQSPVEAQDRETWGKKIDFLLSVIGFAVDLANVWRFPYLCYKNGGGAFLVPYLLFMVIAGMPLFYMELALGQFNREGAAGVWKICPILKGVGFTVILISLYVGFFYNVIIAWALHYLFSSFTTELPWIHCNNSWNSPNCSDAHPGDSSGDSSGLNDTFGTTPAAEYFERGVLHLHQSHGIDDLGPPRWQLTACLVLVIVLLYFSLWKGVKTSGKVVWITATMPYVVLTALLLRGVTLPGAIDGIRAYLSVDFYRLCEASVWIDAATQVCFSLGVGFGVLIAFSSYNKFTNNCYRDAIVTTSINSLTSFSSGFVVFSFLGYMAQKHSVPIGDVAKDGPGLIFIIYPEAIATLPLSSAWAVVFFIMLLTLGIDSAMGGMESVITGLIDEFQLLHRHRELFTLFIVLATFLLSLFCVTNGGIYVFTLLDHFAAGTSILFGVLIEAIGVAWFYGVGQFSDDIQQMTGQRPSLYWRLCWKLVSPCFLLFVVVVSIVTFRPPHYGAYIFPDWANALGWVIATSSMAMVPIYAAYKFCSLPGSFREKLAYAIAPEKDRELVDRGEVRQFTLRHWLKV
Experiment: Inhibition of DAT at 1 uM by radioligand displacement assay
value-type: inhibition (%)
Lab book: enter the figure in %, no units written.

Consider the reported inhibition for these compounds:
{"columns": ["molecule-smiles", "result-units", "inhibition"],
 "data": [
  ["O=S(=O)(c1ccccc1Br)n1ccc2c(CN3CCNCC3)cccc21", "%", 5.23],
  ["CN1CCN(Cc2cccc3c2ccn3S(=O)(=O)c2ccccc2Br)CC1", "%", 3.66]
]}

Prompt: Given `CN1CCN(Cc2cccc3c2ccn3S(=O)(=O)c2ccccc2)CC1` , state its recorded inhibition.
Response: 3.92

Prompt: Given `CN1CCN(Cc2cccc3c2c(Cl)cn3S(=O)(=O)c2cccc(Cl)c2)CC1` , state its recorded inhibition.
Response: 20.4

Prompt: Given `CN1CCN(Cc2cccc3c2c(Br)cn3S(=O)(=O)c2ccccc2)CC1` , state its recorded inhibition.
Response: 3.53

###

Target: D(2) dopamine receptor (Homo sapiens) (UniProt P14416)
Sequence (P14416 whole entry): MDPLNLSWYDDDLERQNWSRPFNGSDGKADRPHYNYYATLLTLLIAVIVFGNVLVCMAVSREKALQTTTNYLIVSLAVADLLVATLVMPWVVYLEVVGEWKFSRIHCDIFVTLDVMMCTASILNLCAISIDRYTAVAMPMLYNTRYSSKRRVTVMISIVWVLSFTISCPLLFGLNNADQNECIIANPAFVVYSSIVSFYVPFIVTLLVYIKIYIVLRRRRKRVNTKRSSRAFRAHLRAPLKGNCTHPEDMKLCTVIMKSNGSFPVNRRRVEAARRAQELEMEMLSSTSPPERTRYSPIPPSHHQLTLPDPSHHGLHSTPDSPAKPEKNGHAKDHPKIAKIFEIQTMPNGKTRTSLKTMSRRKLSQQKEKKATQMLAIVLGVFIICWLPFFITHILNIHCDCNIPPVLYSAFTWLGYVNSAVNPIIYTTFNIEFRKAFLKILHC
Assay: Inhibition of dopamine D2 receptor at 1 uM by radioligand displacement assay
Short version: inhibition at least 10% is class 1, less is class 0.

Previously resolved entries follow.
{"columns": ["molecule-smiles", "qualitative-label"],
 "data": [
  ["CN1CCN(Cc2cccc3c2ccn3S(=O)(=O)c2ccccc2)CC1", "class 0"],
  ["O=S(=O)(c1ccccc1Br)n1ccc2c(CN3CCNCC3)cccc21", "class 1"],
  ["CN1CCN(Cc2cccc3c2c(Br)cn3S(=O)(=O)c2ccccc2)CC1", "class 0"],
  ["CN1CCN(Cc2cccc3c2c(Cl)cn3S(=O)(=O)c2cccc(Cl)c2)CC1", "class 1"]
]}

# input for lookup
Prompt: Decide: inhibition of `CN1CCN(Cc2cccc3c2ccn3S(=O)(=O)c2ccccc2Br)CC1` >= 10%?
Response: class 1
